From: ChEMBL document CHEMBL3352679

Test system: Staphylococcus aureus
Experiment: Antibacterial activity against Staphylococcus aureus ATCC 25923 after 18 hrs by serial microdilution method
Assay type: functional
Conditions: ATCC 25923, 18 h
PARAMETER_MEASURED: MIC (µg/mL)
Express it in µg/mL; write the number only.

Here are 5 molecules together with their reported answers.
STRUCTURE: CO[C@H]1/C=C\O[C@@]2(C)Oc3c(C)c(O)c4c(O)c(c(CNC5CCN(Cc6ccccc6)CC5)c(O)c4c3C2=O)NC(=O)/C(C)=C\C=C/[C@H](C)[C@H](O)[C@@H](C)[C@@H](O)[C@@H](C)[C@H](OC(C)=O)[C@@H]1C
MEASURED_TARGET: Staphylococcus aureus
PARAMETER_MEASURED: MIC
UNIT_NAME: µg/mL
RESULT_NUMBER: 0.25
--
STRUCTURE: CO[C@H]1/C=C/O[C@@]2(C)Oc3c(C)c(O)c4c(O)c(c(/C=N/N5CCN(C)CC5)c(O)c4c3C2=O)NC(=O)/C(C)=C\C=C\[C@H](C)[C@H](O)[C@@H](C)[C@@H](O)[C@@H](C)[C@H](OC(C)=O)[C@@H]1C
MEASURED_TARGET: Staphylococcus aureus
PARAMETER_MEASURED: MIC
UNIT_NAME: µg/mL
RESULT_NUMBER: 0.016
--
STRUCTURE: CO[C@H]1/C=C/O[C@@]2(C)Oc3c(C)c(O)c4c(O)c(c(CNC5CCN(Cc6ccccc6)CC5)c(O)c4c3C2=O)NC(=O)/C(C)=C\C=C\[C@H](C)[C@H](O)[C@@H](C)[C@@H](O)[C@@H](C)[C@H](OC(C)=O)[C@@H]1C
MEASURED_TARGET: Staphylococcus aureus
PARAMETER_MEASURED: MIC
UNIT_NAME: µg/mL
RESULT_NUMBER: 0.25
--
STRUCTURE: CO[C@H]1/C=C/O[C@@]2(C)Oc3c(C)c(O)c4c(O)c(c(CNCCN5CCCC5)c(O)c4c3C2=O)NC(=O)/C(C)=C\C=C\[C@H](C)[C@H](O)[C@@H](C)[C@@H](O)[C@@H](C)[C@H](OC(C)=O)[C@@H]1C
MEASURED_TARGET: Staphylococcus aureus
PARAMETER_MEASURED: MIC
UNIT_NAME: µg/mL
RESULT_NUMBER: 1
--
STRUCTURE: CO[C@H]1/C=C/O[C@@]2(C)Oc3c(C)c(O)c4c(O)c(c(CNCCCN5CCCC5)c(O)c4c3C2=O)NC(=O)/C(C)=C\C=C\[C@H](C)[C@H](O)[C@@H](C)[C@@H](O)[C@@H](C)[C@H](OC(C)=O)[C@@H]1C
MEASURED_TARGET: Staphylococcus aureus
PARAMETER_MEASURED: MIC
UNIT_NAME: µg/mL
RESULT_NUMBER: 1

Would you kindly look at the next entry?
Supply MIC value. Item: CO[C@H]1/C=C/O[C@@]2(C)Oc3c(C)c(O)c4c(O)c(c(CNCCCn5ccnc5)c(O)c4c3C2=O)NC(=O)/C(C)=C\C=C\[C@H](C)[C@H](O)[C@@H](C)[C@@H](O)[C@@H](C)[C@H](OC(C)=O)[C@@H]1C
1
